# System: Staphylococcus aureus
# protocol.summary: Antibacterial activity against constitutively macrolides/lincosamides/streptogramines-resistant Staphylococcus aureus ND048910 expressing erm gene by broth microdilution method
# Type: functional
assay.endpoint: MIC (µg/mL)
Reply numerically in µg/mL, unit not repeated.

Fill in: MIC on Staphylococcus aureus, entry C=C1C(=O)[C@H](C)C[C@@](C)(OC)[C@H](O[C@@H]2O[C@H](C)C[C@H](N(C)C)[C@H]2OC(C)=O)[C@@H](C)C(=O)[C@@H](C)C(=O)O[C@H](CC)[C@@]2(C)OC(=O)N(Cc3ccccc3)[C@H]12
64

====

# Test system: Staphylococcus aureus
# protocol.summary: Antibacterial activity against constitutively macrolides/lincosamides/streptogramines-resistant Staphylococcus aureus ND048910 expressing erm gene by broth microdilution method
# Assay type: functional
assay.endpoint: MIC

>>> result("CC[C@H]1OC(=O)[C@H](C)C(=O)[C@H](C)[C@@H](O[C@@H]2O[C@H](C)C[C@H](N(C)C)[C@H]2OC(C)=O)[C@](C)(OC)C[C@@H](C)C(=O)[C@]2(CC=NN2)[C@H]2NC(=O)O[C@]12C")
"> 128 µg/mL"
>>> result("CC[C@H]1OC(=O)[C@H](C)C(=O)[C@H](C)[C@@H](O[C@@H]2O[C@H](C)C[C@H](N(C)C)[C@H]2OC(C)=O)[C@](C)(OC)C[C@@H](C)C(=O)[C@H](CNCc2ccccc2)[C@H]2NC(=O)O[C@@]21C")
"> 64 µg/mL"
>>> result("CC[C@H]1OC(=O)[C@H](C)C(=O)[C@H](C)[C@@H](O[C@@H]2O[C@H](C)C[C@H](N(C)C)[C@H]2O)[C@](C)(OC)C[C@@H](C)C(=O)[C@H](CNCc2ccccc2)[C@H]2N(C)C(=O)O[C@]12C")
"> 64 µg/mL"
>>> result("CC[C@H]1OC(=O)[C@H](C)[C@@H](O)[C@H](C)[C@@H](O[C@@H]2O[C@H](C)C[C@H](N(C)C)[C@H]2OC(C)=O)[C@](C)(OC)C[C@@H](C)C(=O)/C(Cc2ccccc2)=C/[C@]1(C)O")
"> 64 µg/mL"

Now for the compound whose MIC we want.
Entry CCOC(=O)C(C[C@H]1C(=O)[C@H](C)C[C@@](C)(OC)[C@H](O[C@@H]2O[C@H](C)C[C@H](N(C)C)[C@H]2OC(C)=O)[C@@H](C)C(=O)[C@@H](C)C(=O)O[C@H](CC)[C@@]2(C)OC(=O)N[C@H]12)C(=O)OCC needs its MIC filled in; supply it.
> 128 µg/mL
